Tested on: Mycobacterium sp.
Assay protocol: Antimycobacterial activity against Mycobacterium sp.
Format: functional
The entries below are paired with their reported log10(MIC).
Test readout: log10(MIC) (log10 of the value in µg/mL)

| Compound | log10(MIC) |
| --- | --- |
| c1ccc2c(c1)CC1NCCc3cc4c(c-2c31)OCO4 (stereo not given) | 1.08 |
| CC[C@H]1C[C@H]2C[N@]3CCc4c([nH]c5ccc(OC)cc45)[C@](C(=O)OC)(C2)[C@H]13 | 1.70 |
| Oc1ccc2c(c1)CC1NCCc3cc4c(c-2c31)OCO4 (stereo not given) | 0.78 |
| COc1cnc2c3c(nccc13)C(=O)c1ccccc1-2 | 0.19 |
| O=C1c2ccccc2-c2nccc3ccnc1c23 | -0.11 |
| Cc1ccnc2c1C(=O)c1ccccc1C2=O | 1.10 |
| CC[C@H]1CN(C)[C@H]2Cc3c([nH]c4ccccc34)C(=O)C[C@@H]1[C@@H]2C(=O)OC | 2.11 |
| CC[C@H]1C[C@H]2C[C@H]3c4[nH]c5ccc(OC)cc5c4CCN(C2)C13 | 1.70 |
| COc1ccc2c(c1)CC1NCCc3cc4c(c-2c31)OCO4 (stereo not given) | 1.08 |
